test system: M. incognita; experiment: Nematicidal activity of fatty acid methyl ester emulsions, spectrum (Example 8); assay type: cell-based, Meloidogyne incognita; settings: M. incognita 2nd stage juveniles, 0.1% solution; scored at 48 hours
attribute-measured: % Worm Death (24 hr)

{"molecule": "CCCCCCCCC(=O)OC [Nonanoic (C9-methyl ester), pelargonic acid methyl ester, reference compound]", "attribute-measured": "% Worm Death (24 hr)", "val": "100%"}
{"molecule": "CCCCC/C=C\\C/C=C\\CCCCCCCC(=O)OC [Linoleic Acid (C18-methyl ester), linoleic acid methyl ester, reference compound]", "attribute-measured": "% Worm Death (24 hr)", "val": "20%"}
{"molecule": "CCCCC[C@H]1O[C@H]1C/C=C\\CCCCCCCC(=O)OC", "attribute-measured": "% Worm Death (24 hr)", "val": "98%"}
{"molecule": "CCCCCCC(O)C/C=C\\CCCCCCCC(=O)OC (centres unmarked)", "attribute-measured": "% Worm Death (24 hr)", "val": "95%"}

Okay, next one:
Prompt: // query % Worm Death (24 hr) value for entry CCCCCCC(O)C/C=C/CCCCCCCC(=O)OC (centres unmarked)
Completion: ˜99%
